biological target: human TLR7 (Homo sapiens (Human), UniProt Q9NYK1); assay: Test for evaluating the inhibition of the activation of human TLR7 (SEAP reporter, TLR7/NF-κB/SEAPorter HEK293 cell); conditions: R-848 200 nmol/L, SEAP reporter
Sequence (Q9NYK1 27-1049): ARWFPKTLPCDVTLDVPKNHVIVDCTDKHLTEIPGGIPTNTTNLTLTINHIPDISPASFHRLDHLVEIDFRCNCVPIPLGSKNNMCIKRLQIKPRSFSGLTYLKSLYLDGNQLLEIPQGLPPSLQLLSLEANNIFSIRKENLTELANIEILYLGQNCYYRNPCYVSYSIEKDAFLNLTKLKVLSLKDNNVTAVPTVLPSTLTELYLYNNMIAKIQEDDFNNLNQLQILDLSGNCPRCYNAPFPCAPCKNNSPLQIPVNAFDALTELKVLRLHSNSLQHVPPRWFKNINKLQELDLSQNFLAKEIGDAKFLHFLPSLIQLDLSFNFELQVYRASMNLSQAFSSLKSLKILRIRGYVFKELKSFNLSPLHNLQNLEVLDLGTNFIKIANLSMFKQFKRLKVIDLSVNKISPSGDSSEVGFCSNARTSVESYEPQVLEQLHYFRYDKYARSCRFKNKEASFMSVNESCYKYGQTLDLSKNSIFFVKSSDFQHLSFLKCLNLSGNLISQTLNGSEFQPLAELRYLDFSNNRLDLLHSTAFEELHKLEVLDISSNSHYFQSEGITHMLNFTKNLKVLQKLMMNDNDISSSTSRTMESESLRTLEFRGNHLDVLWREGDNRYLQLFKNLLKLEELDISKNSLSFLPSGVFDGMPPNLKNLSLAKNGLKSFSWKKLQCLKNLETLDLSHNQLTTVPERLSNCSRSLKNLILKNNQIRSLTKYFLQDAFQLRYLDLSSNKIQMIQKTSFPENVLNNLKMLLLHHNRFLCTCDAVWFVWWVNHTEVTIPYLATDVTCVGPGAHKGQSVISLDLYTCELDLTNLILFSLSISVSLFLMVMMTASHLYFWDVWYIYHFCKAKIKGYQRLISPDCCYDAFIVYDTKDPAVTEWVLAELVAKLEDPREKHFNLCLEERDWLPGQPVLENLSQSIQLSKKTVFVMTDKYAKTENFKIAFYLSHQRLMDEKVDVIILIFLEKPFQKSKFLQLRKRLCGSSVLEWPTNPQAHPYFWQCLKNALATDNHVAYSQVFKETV
Threshold-based label: IC50 under 200 nM gives Satisfied, IC50 not under 200 nM gives Not satisfied.

{"COMPOUND": "CCOc1nc(C)c2nc(-c3cncc(F)c3)n(Cc3cnn(CCN4CCCC4)c3)c2n1", "ASSIGNED LABEL": "Not satisfied"}
{"COMPOUND": "COc1nc(C)c2nc(-c3cncnc3)n(Cc3ccc(O[C@@H]4CN5CCC4CC5)cc3F)c2n1", "ASSIGNED LABEL": "Satisfied"}
{"COMPOUND": "COc1nc(C)c2nc(-c3cncc(F)c3)n(Cc3ccc(C4CN5CCC4CC5)cc3F)c2n1 (stereo not shown) [Example 314]", "ASSIGNED LABEL": "Satisfied"}
{"COMPOUND": "CCOc1nc(C)c2nc(-c3cncc(F)c3)n(Cc3ccc(CN4C[C@@H]5C[C@H]4CN5C)cc3F)c2n1", "ASSIGNED LABEL": "Satisfied"}
{"COMPOUND": "CCOc1nc(N)c2nc(-c3cncc(F)c3)n(Cc3ccc(CN4[C@@H]5CC[C@H]4CN(C)C5)cc3)c2n1", "ASSIGNED LABEL": "Satisfied"}
{"COMPOUND": "CCOc1nc(C)c2nc(-c3cncc(F)c3)n(Cc3ccc(C4CN5CCC4CC5)cc3F)c2n1 (stereo not shown)", "ASSIGNED LABEL": "Satisfied"}
{"COMPOUND": "CCOc1nc(N)c2nc(-c3cncc(F)c3)n(Cc3ccc(CN4CC(C(F)F)C4)cc3)c2n1", "ASSIGNED LABEL": "Satisfied"}
{"COMPOUND": "CCOc1nc(C)c2nc(-c3cncc(F)c3)n(Cc3ccc(C4CN5CCC4CC5)cc3OCC)c2n1 (stereo not shown)", "ASSIGNED LABEL": "Satisfied"}
{"COMPOUND": "COc1nc(C)c2nc(-c3cncc(F)c3)n(Cc3ccc(O[C@H]4CN5CCC4CC5)nc3)c2n1", "ASSIGNED LABEL": "Satisfied"}
{"COMPOUND": "COc1nc(C)c2nc(-c3cncc(F)c3)n(Cc3ccc(O[C@H]4C[C@H]5CC[C@@H](C4)N5C)cc3F)c2n1", "ASSIGNED LABEL": "Satisfied"}
{"COMPOUND": "CCN1C[C@@H]2C[C@H]1CN2Cc1ccc(Cn2c(-c3cncc(C#N)c3)nc3c(C)nc(OC)nc32)c(F)c1", "ASSIGNED LABEL": "Satisfied"}
{"COMPOUND": "CCOc1nc(N)c2nc(-c3cncc(F)c3)n(Cc3ccc(CO)cc3)c2n1", "ASSIGNED LABEL": "Not satisfied"}
{"COMPOUND": "COCCOc1nc(N)c2nc(-c3cncc(F)c3)n(Cc3ccc(CN4CCCCC4)cc3)c2n1", "ASSIGNED LABEL": "Not satisfied"}
{"COMPOUND": "COc1nc(C)c2nc(-c3cncc(F)c3)n(Cc3ccc(Br)cc3F)c2n1", "ASSIGNED LABEL": "Not satisfied"}
{"COMPOUND": "COCCOc1nc(C)c2nc(-c3cncc(F)c3)n(Cc3ccc(CN4CCN(C)CC4)cc3)c2n1", "ASSIGNED LABEL": "Satisfied"}
{"COMPOUND": "COc1nc(C)c2nc(-c3cncnc3)n(Cc3ccc(OC4CC5CCC(C4)N5C)cc3F)c2n1 (stereo not shown)", "ASSIGNED LABEL": "Satisfied"}
{"COMPOUND": "COc1nc(C)c2nc(-c3cncc(F)c3)n(Cc3ccc(OCC4CN(C)C4)cc3F)c2n1", "ASSIGNED LABEL": "Satisfied"}
{"COMPOUND": "CCOc1nc(C)c2nc(-c3cncc(F)c3)n(Cc3ccc(C4=CN5CCC4CC5)cc3OC)c2n1", "ASSIGNED LABEL": "Satisfied"}
{"COMPOUND": "CCOc1nc(N)c2nc(-c3cncc(F)c3)n(Cc3ccc(C(=O)N4CCC(C)CC4)cc3)c2n1", "ASSIGNED LABEL": "Not satisfied"}
{"COMPOUND": "CCOc1nc(N)c2nc(-c3cncc(F)c3)n(Cc3ccc(N(C)CCN(C)C)nc3)c2n1", "ASSIGNED LABEL": "Not satisfied"}
{"COMPOUND": "CCOc1nc(N)c2nc(-c3cncc(F)c3)n(Cc3ccc(C(=O)N4CCN(C)CC4)cc3)c2n1", "ASSIGNED LABEL": "Not satisfied"}
{"COMPOUND": "CCOc1nc(C)c2nc(-c3cncc(F)c3)n(Cc3ccc(O[C@@H]4CN5CCC4CC5)nc3)c2n1", "ASSIGNED LABEL": "Satisfied"}
{"COMPOUND": "COCCOc1nc(N)c2nc(-c3cncc(C#N)c3)n(Cc3ccc(CN(C)C)cc3)c2n1", "ASSIGNED LABEL": "Not satisfied"}
{"COMPOUND": "CCOc1nc(N)c2nc(-c3cncc(F)c3)n(Cc3ccc(C(=O)NCCN4CCCC4)cc3)c2n1", "ASSIGNED LABEL": "Not satisfied"}
{"COMPOUND": "CCOc1nc(C)c2nc(-c3cncc(F)c3)n(Cc3cnc(CC4CCN(C(=O)OC(C)(C)C)CC4)cc3OC)c2n1", "ASSIGNED LABEL": "Not satisfied"}
{"COMPOUND": "CCOc1nc(C)c2nc(-c3cncc(F)c3)n(Cc3cnn(C4CCN(C)C4)c3)c2n1 (stereo not shown)", "ASSIGNED LABEL": "Satisfied"}
{"COMPOUND": "CCOc1nc(C)c2nc(-c3cncc(F)c3)n(Cc3ccc(CO)cc3)c2n1", "ASSIGNED LABEL": "Not satisfied"}
{"COMPOUND": "CCOc1nc(C)c2nc(-c3cncc(F)c3)n(Cc3cc(OC)c(C4CN5CCC4CC5)cc3F)c2n1 (stereo not shown)", "ASSIGNED LABEL": "Not satisfied"}
{"COMPOUND": "CCN1CCC(c2ccc(Cn3c(-c4cncc(F)c4)nc4c(C)nc(OC)nc43)c(F)c2)C1 (stereo not shown)", "ASSIGNED LABEL": "Satisfied"}
